- Tested on: MCF7
- method summary: Antiproliferative activity against human MCF7 cells assessed as cell viability at 10^-5 M incubated for 48 hrs by sulforhodamine B assay relative to control
- Type: functional
- condition set: MCF7, 48 h, read-out: Activity
Provide the reported viability at 10 µM of each item.
The reply should be a number in %, with the unit left off.

Entry COc1cc2c(c3c1OCCO3)C(=O)NC1C2CC(O)C(O)C1O (racemic) has what viability at 10 µM?
97.3

Thanks! And COc1c2c(cc3c1C(=O)NC1C3CC(O)C(O)C1O)OCCO2 (racemic) ?
93.9

What do you get for CCOc1c(OC)cc2c(c1OCC)C(=O)NC1C2CC(O)C(O)C1O (racemic) ?
95.2
